As a worked illustration, we turn to pKd data collected for human RORγt ligand binding domain (RORγt LBD) (Homo sapiens (Human), UniProt P51449).
pKd: −log10 of the molar value.
Measured parameter: pKd

# count of solved cases: 4
Molecule | Study target | pKd
CCc1nc(C(=O)NC[C@H]2CC[C@H](S(C)(=O)=O)CC2)c(Cl)n1-c1ccc(CC(C(F)(F)F)C(F)(F)F)cc1F | human RORγt ligand binding domain (RORγt LBD) (Homo sapiens (Human), UniProt P51449) | 8.40
CCc1nc(C(=O)NC[C@]2(O)CC[C@@H](S(C)(=O)=O)CC2)c(F)n1-c1ccc(CC(C)(C)C(F)(F)F)cc1OC(F)F | human RORγt ligand binding domain (RORγt LBD) (Homo sapiens (Human), UniProt P51449) | 7.96
CCc1nc(C(=O)NC[C@H]2CC[C@H](S(C)(=O)=O)CC2)c(Cl)n1-c1ccc(CC(C)C)cc1OC | human RORγt ligand binding domain (RORγt LBD) (Homo sapiens (Human), UniProt P51449) | 9.70
CCc1nc(C(=O)NC[C@H]2CC[C@H](S(C)(=O)=O)CC2)c(Cl)n1-c1c(F)cc(CC(C)C(F)(F)F)cc1F (stereo partly drawn) | human RORγt ligand binding domain (RORγt LBD) (Homo sapiens (Human), UniProt P51449) | 8.09

I = CCCc1nc(C(=O)NC[C@H]2CC[C@H](S(C)(=O)=O)CC2)c(Cl)n1-c1ccc(N[C@H](C)C(F)(F)F)cc1OC
II = CCc1nc(C(=O)NC[C@]2(O)CC[C@@H](S(C)(=O)=O)CC2)c(C)n1-c1ncc(CC(C)(C)C(F)(F)F)cc1OC
Param metric = pKd; output whichever of I , II has the minimum value. Your choice should be expressed through its label.
II

---

biological target: full-length human RORγt (Homo sapiens (Human), UniProt P51449); test: RORγt (full-length human) reporter assay, conditions A or B; assay type: cell-based; settings: 0.22 μM compound concentration (******); read-out: RORγt (FL) Reporter Assay A or B, % inhibition
Sequence (P51449 other isoform, or with tags, fused parts or gaps): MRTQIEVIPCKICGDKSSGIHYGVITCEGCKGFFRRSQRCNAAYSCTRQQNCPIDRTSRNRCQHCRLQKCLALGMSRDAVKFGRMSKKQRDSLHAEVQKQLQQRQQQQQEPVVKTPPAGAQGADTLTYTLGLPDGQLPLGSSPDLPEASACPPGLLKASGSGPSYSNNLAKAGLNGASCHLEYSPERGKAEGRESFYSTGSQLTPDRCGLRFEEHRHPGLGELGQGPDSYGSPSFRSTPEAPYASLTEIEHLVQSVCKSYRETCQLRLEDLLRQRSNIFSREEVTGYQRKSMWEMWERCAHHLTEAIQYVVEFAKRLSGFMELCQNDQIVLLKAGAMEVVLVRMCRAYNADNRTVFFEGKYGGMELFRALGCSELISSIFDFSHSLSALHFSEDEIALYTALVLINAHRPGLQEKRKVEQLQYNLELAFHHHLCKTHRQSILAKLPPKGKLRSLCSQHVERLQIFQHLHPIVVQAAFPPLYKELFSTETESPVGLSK
Measured parameter: inhibition at 0.22 µM (%)

Consider the reported inhibition at 0.22 µM for these molecules:
Molecule | Measured parameter | Measured result
CCc1nc(C(=O)NC[C@H]2CC[C@H](S(C)(=O)=O)CC2)c(C)n1-c1ccc(CC(C)(C)C(F)(F)F)c(OC)c1 | inhibition at 0.22 µM | 75
CCc1nc(C(=O)NC[C@]2(O)CC[C@@H](S(C)(=O)=O)CC2)c(C)n1-c1ccc(CC(C(F)(F)F)C(F)(F)F)c(F)c1 | inhibition at 0.22 µM | 40

I = CCc1nc(C(=O)NC[C@H]2CC[C@H](S(C)(=O)=O)CC2)c(Cl)n1-c1c(F)cc(CC(C)C(F)(F)F)cc1F (stereo partly drawn)
II = CCc1nc(C(=O)NC[C@]2(O)CC[C@@H](S(C)(=O)=O)CC2)c(Cl)n1-c1ccc(CC(C(F)(F)F)C(F)(F)F)cc1F
III = CCc1nc(C(=O)NC[C@H]2CC[C@H](S(C)(=O)=O)CC2)c(Cl)n1-c1ccc(CCC(F)(F)F)cc1F
Put the items in order so that reported inhibition at 0.22 µM rises from first to last. List the labels in the requested order.
III, I, II
(III: 38%, I: 63%, II: 100%)

---

target: UniProt:P51449; test: RORγt (full-length human) reporter assay, conditions A or B; details: HEK293T cells; read-out: RORγt (FL) Reporter Assay A or B, IC50
pIC50: −log10 of the molar value.
Measured parameter: pIC50

Compound | Study target | Measured parameter | Measured result
CCc1nc(C(=O)NC[C@H]2CC[C@H](S(C)(=O)=O)CC2)c(C)n1-c1ncc(CC(C)(C)C(F)(F)F)cc1OC | UniProt:P51449 | pIC50 | 7.12
CCc1nc(C(=O)NC[C@]2(O)CC[C@@H](S(C)(=O)=O)CC2)c(Cl)n1-c1ncc(CCCC(F)(F)F)cc1OC(F)F | UniProt:P51449 | pIC50 | 6.47
Cc1nc(C(=O)NC[C@@H]2CC[C@@H](S(C)(=O)=O)C[C@H]2O)c(C#N)n1-c1ccc(CC(C)(C)C(F)(F)F)cc1OC(F)F (racemic) [Example 55] | UniProt:P51449 | pIC50 | 7.18

P = CCc1nc(C(=O)NC[C@H]2CC[C@H](S(C)(=O)=O)C[C@@H]2O)c(Cl)n1-c1ncc(CC(C(F)(F)F)C(F)(F)F)cc1OC(F)F (stereo in doubt)
Q = CCc1nc(C(=O)NC[C@]2(O)CC[C@@H](S(C)(=O)=O)CC2)c(C#N)n1-c1ccc(CC(C)(C)C(F)(F)F)cc1OC(F)F
R = CCc1nc(C(=O)NC[C@]2(O)CC[C@@H](S(C)(=O)=O)CC2)c(C#N)n1-c1ncc(CCC(F)(F)F)cc1OC
S = CCc1nc(C(=O)NC[C@]2(O)CC[C@@H](S(C)(=O)=O)CC2)c(Cl)n1-c1ccc(CC(C)(C)C(F)(F)F)c(OC)c1
Ordering criterion: pIC50; begin with the maximum. Reply with the item labels sorted in the order that was asked for.
S, Q, P, R

---

test system: IL-17 production by CD4 T cells; assay: Human Th17 assay; type: cell-based; settings: 72 h, IL-17 in supernatant after 3 days
Measured parameter: IC50 (nM)

Examples from the recorded data:
Compound | Units of measure | IC50
CCc1nc(C(=O)NC[C@H]2CC[C@H](S(C)(=O)=O)CC2)c(Cl)n1-c1ccc(CCC(F)(F)F)cc1F [Example 22] | nM | 42
CCc1nc(C(=O)NC[C@H]2CC[C@H](S(C)(=O)=O)CC2)c(Cl)n1-c1ccc(CC(C)C(F)(F)F)cc1OC (single isomer, unassigned) [Example 6] | nM | 2

A = CCc1nc(C(=O)NC[C@H]2CC[C@H](S(C)(=O)=O)CC2)c(F)n1-c1ccc(N[C@H](C)C(F)(F)F)cc1OC [Example 12]
B = CCc1nc(C(=O)NC[C@]2(O)CC[C@@H](S(C)(=O)=O)CC2)c(Cl)n1-c1ccc(CC(C(F)(F)F)C(F)(F)F)cc1F [Example 100]
C = CCc1nc(C(=O)NC[C@H]2CC[C@H](S(C)(=O)=O)CC2)c(Cl)n1-c1ccc(N[C@H](C)C(F)(F)F)cc1OC [Example 3]
Ranking field: IC50; order: falling. // format: requested-order list of labels
A, B, C

---

target: full-length human RORγt (Homo sapiens (Human), UniProt P51449); test: RORγt (full-length human) reporter assay, conditions A or B; type: cell-based; conditions: read-out: RORγt (FL) Reporter Assay A or B, % inhibition @ 6 μM; 6 μM compound concentration
Measured parameter: inhibition at 6 µM (%)

Below, each entry is followed by its recorded inhibition at 6 µM result.
Compound | inhibition at 6 µM [%]
CCc1nc(C(=O)NC[C@H]2CC[C@H](S(C)(=O)=O)CC2)c(F)n1-c1ccc(CC(C)C(F)(F)F)cc1OC (stereo partly drawn) [Example 15] | 103
CCc1nc(C(=O)NC[C@]2(O)CC[C@@H](S(C)(=O)=O)CC2)c(Cl)n1-c1ncc(CC(C)(C)C(F)(F)F)cc1OC(F)F [Example 46] | 97
CCc1nc(C(=O)NC[C@H]2CC[C@H](S(C)(=O)=O)CC2)c(C)n1-c1ncc(CCCC(F)(F)F)cc1OC(F)F [Example 51] | 84

A = CCc1nc(C(=O)NC[C@H]2CC[C@H](S(C)(=O)=O)CC2)c(F)n1-c1ccc(N[C@H](C)C(F)(F)F)cc1OC [Example 12]
B = CCc1nc(C(=O)NC[C@H]2CC[C@H](S(C)(=O)=O)CC2)cn1-c1cnc(CCC(F)(F)F)cc1OC [Example 116]
Between A and B , whose recorded inhibition at 6 µM is greater? Mark your selection by writing its label.
A
(A: 109%, B: 30%)

---

test system: IL-17 production by CD4 T cells; experiment: Human Th17 assay; assay type: cell-based; details: 72 h, IL-17 in supernatant after 3 days
Measured parameter: IC50 (nM)

Some solved entries appear below for comparison.
Molecule | Measured result
CCc1nc(C(=O)NC[C@H]2CC[C@H](S(C)(=O)=O)CC2)c(Cl)n1-c1ncc(CC(C)(C)C(F)(F)F)cc1OC(F)F | 85
CCc1nc(C(=O)NC[C@H]2CC[C@H](S(C)(=O)=O)CC2)c(C)n1-c1ccc(CC(C)C(F)(F)F)cc1OC (single isomer, unassigned) | 7
CCc1nc(C(=O)NC[C@]2(O)CC[C@@H](S(C)(=O)=O)CC2)c(C)n1-c1ccc(CC(C(F)(F)F)C(F)(F)F)cc1F | 79
[2H]C([2H])([2H])Oc1cc(CC(C)(C)C(F)(F)F)ccc1-n1c(CC)nc(C(=O)NC[C@H]2CC[C@H](S(C)(=O)=O)CC2)c1C#N | 13

A = CCc1nc(C(=O)NC[C@H]2CC[C@H](S(C)(=O)=O)CC2)c(C#N)n1-c1ccc(CC(C)(C)C(F)(F)F)cc1OC(F)F
B = CCc1nc(C(=O)NC[C@]2(O)CC[C@@H](S(C)(=O)=O)CC2)c(C#N)n1-c1ccc(CC(C)(C)C(F)(F)F)cc1OC(F)(F)F
When A and B are compared, which has the higher number for IC50? Return value: the label identifying the chosen record.
B
(B: 69 nM, A: 8 nM)
